tested_system: F508del-CFTR (Homo sapiens, UniProt P13569, DEL508-508)
Construct: endogenous in cells; host or cells: CF-hBE (primary human bronchial epithelial cells from CF donors)
Sequence (P13569 with tags, fused parts or gaps DEL508-508): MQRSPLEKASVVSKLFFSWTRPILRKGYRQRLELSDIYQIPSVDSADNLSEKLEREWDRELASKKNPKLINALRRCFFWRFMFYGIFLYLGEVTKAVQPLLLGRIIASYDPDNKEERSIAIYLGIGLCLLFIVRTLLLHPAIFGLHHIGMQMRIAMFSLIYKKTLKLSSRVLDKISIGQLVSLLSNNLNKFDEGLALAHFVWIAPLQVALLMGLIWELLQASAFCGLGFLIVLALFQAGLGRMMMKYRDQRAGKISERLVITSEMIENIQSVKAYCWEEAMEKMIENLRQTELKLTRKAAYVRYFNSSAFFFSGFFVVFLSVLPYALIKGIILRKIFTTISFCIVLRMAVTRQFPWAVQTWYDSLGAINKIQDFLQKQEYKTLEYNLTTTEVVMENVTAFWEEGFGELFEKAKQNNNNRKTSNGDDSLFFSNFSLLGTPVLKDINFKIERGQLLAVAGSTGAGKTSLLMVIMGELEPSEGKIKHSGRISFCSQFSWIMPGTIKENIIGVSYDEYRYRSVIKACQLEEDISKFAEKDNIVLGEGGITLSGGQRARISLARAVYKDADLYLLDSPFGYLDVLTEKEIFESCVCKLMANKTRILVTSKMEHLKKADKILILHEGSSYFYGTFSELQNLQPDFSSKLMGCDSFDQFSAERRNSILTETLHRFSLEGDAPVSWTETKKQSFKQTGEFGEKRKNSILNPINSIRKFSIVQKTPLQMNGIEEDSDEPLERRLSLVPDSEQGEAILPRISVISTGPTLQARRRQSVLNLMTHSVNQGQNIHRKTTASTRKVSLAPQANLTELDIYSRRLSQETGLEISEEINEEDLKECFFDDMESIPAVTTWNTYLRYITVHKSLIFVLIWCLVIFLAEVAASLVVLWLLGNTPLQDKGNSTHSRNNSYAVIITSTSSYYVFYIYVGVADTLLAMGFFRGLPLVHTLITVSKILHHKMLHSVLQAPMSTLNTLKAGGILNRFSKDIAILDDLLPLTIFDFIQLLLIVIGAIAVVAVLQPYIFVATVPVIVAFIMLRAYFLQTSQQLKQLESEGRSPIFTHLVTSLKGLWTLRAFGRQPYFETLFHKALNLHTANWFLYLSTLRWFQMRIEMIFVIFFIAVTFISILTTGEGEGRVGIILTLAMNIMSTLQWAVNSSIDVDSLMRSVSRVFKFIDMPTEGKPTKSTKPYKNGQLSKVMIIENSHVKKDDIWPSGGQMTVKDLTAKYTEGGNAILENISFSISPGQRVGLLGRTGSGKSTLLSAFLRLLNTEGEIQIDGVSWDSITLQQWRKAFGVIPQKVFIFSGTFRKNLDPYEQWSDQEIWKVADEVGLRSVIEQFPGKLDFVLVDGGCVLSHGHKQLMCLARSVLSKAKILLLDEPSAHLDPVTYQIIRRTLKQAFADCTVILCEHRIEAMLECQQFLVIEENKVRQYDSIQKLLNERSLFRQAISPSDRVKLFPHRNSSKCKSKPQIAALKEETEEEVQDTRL
protocol: Ussing chamber electrophysiology, acute potentiation of F508del-CFTR current in corrected CF-hBE cells
Format: cell-based
measurement_conditions: corrector treated CF-hBE cells (lumacaftor, tezacaftor, FDL169); acute addition; read-out: EC50 range, potentiation of F508del-CFTR current
pEC50: −log10 of the molar value.
readout: pEC50

I'd like to know its pEC50. The molecule in question is CC(C)(C)c1cc(C(C)(C)C)c(NC(=O)c2c[nH]c3ccccc3c2=O)cc1O [ivacaftor, reference compound]
8.04 to 8.44
